# ASSAY_SYSTEM: hTRPA1 (Homo sapiens, UniProt O75762, K186N)
# Construct: expressed in transfected cells; host or cells: HEK293/TREx (Invitrogen), induced with tetracycline
# Sequence (O75762 whole entry K186N): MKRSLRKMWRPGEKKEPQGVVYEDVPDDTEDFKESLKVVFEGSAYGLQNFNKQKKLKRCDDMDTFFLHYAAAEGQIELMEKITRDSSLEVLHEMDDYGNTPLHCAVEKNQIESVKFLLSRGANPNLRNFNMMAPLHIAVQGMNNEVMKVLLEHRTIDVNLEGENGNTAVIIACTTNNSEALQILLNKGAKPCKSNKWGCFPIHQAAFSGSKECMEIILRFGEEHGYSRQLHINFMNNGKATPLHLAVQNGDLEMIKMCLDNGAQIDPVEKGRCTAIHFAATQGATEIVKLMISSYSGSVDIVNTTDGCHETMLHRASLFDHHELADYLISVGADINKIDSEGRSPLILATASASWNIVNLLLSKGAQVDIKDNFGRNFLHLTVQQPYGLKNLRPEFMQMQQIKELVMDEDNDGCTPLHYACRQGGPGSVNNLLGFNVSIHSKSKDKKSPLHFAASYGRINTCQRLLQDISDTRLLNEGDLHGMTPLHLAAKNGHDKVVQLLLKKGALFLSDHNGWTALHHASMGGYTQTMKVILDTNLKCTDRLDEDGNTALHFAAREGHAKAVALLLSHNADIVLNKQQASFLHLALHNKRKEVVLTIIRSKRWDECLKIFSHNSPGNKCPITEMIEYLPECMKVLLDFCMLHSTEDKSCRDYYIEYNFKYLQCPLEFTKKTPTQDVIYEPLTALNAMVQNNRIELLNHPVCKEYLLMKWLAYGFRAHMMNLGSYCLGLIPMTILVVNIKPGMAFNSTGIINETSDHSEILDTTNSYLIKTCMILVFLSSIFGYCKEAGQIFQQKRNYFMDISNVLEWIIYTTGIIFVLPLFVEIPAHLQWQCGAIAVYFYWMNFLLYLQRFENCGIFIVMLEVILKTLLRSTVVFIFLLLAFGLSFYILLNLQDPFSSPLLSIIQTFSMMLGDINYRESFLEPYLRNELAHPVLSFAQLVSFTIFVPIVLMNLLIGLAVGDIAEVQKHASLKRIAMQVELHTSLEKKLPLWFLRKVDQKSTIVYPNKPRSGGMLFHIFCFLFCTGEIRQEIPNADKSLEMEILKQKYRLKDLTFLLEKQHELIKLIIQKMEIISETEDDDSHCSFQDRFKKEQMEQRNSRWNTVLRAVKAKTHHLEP
# ASSAY_TEXT: High throughput Ca2+ fluorescence (Fluo4) assay, AITC stimulation
# Assay type: cell-based
# CONDITION_PARAMETERS: Table 1; read-out: hTRPA1 Fluo4 IC50
QUANTITY: IC50

Some solved entries appear below for comparison.
CC1=C(C(=O)OC(C)C)C(c2ccc(C)c(Br)c2)NC(=O)N1 (centres unmarked)
≤ 5 µM
CCCCCOC(=O)C1=C(C)NC(=S)NC1c1ccccc1 (centres unmarked)
> 10 µM
CC1=C(C(=O)OCc2ccc(C)cc2)C(c2ccccc2F)NC(=O)N1 (centres unmarked)
> 10 µM

Find the measured IC50: item CCOC(=O)C1=C(C)NC(=S)NC1c1cccc(OC)c1 (centres unmarked) , target or system hTRPA1 (Homo sapiens, UniProt O75762, K186N).
≤ 5 µM

Find the measured IC50: item CCOC(=O)C1=C(C)NC(=S)NC1c1cccc(O)c1 (centres unmarked) , target or system hTRPA1 (Homo sapiens, UniProt O75762, K186N).
≤ 10 µM

Find the measured IC50: item CCN(CC)C(=O)C1=C(C)NC(=O)NC1c1c(F)cccc1Cl (centres unmarked) , target or system hTRPA1 (Homo sapiens, UniProt O75762, K186N).
> 10 µM

Find the measured IC50: item CCOc1ccc(C2NC(=S)NC(C)=C2C(=O)OC)cc1 (centres unmarked) , target or system hTRPA1 (Homo sapiens, UniProt O75762, K186N).
≤ 5 µM

Find the measured IC50: item CC1=C(C(=O)OCCc2ccccc2)C(c2ccc(Cl)cc2)NC(=O)N1 (centres unmarked) , target or system hTRPA1 (Homo sapiens, UniProt O75762, K186N).
≤ 5 µM

Find the measured IC50: item CCOC(=O)C1=C(c2ccc(N(C)C)cc2)NC(=O)NC1c1ccccc1 (centres unmarked) , target or system hTRPA1 (Homo sapiens, UniProt O75762, K186N).
≤ 1 µM

Find the measured IC50: item COc1ccc(C2NC(=O)N(C)C(C)=C2C(=O)Nc2ccccc2C)cc1 (centres unmarked) , target or system hTRPA1 (Homo sapiens, UniProt O75762, K186N).
> 10 µM

Find the measured IC50: item C=CCOC(=O)C1=C(C)NC(=O)NC1c1ccc(C(C)(C)C)cc1 (centres unmarked) , target or system hTRPA1 (Homo sapiens, UniProt O75762, K186N).
> 10 µM

###

Each record here notes measured IC50.
# ASSAY_SYSTEM: hTRPA1 (Homo sapiens, UniProt O75762, K186N)
# Construct: expressed in transfected cells; host or cells: HEK293/TREx (Invitrogen), induced with tetracycline
# ASSAY_TEXT: High throughput Ca2+ fluorescence (Fluo4) assay, AITC stimulation
# Assay type: cell-based
# CONDITION_PARAMETERS: Table 2; read-out: hTRPA1 Fluor IC50

Some solved entries appear below for comparison.
Cc1ccc(Cl)cc1NC(=O)Cn1cnc2c1c(=O)n(C)c(=O)n2C
≥ 20 µM
CC(=O)c1cccc(NC(=O)Cn2cnc3c2c(=O)n(C)c(=O)n3C)c1
> 10 µM
Cn1c(=O)c2c(ncn2CC(=O)NCc2cccnc2)n(C)c1=O
> 10 µM
CC(C(=O)Nc1cccc(Cl)c1)n1cnc2c1c(=O)n(C)c(=O)n2C (centres unmarked)
> 10 µM
CN(Cc1ccccc1N1CCOCC1)C(=O)Cn1cnc2c1c(=O)n(C)c(=O)n2C
> 10 µM

Find the measured IC50: item "CC(C)NC(=O)c1ccccc1NC(=O)Cn1cnc2c1c(=O)n(C)c(=O)n2C" , target or system hTRPA1 (Homo sapiens, UniProt O75762, K186N).
> 10 µM

Find the measured IC50: item "Cn1c(=O)c2c(ncn2CC(=O)Nc2ccc(F)c(F)c2)n(C)c1=O" , target or system hTRPA1 (Homo sapiens, UniProt O75762, K186N).
≤ 10 µM

Find the measured IC50: item "Cn1c(=O)c2c(ncn2CC(=O)Nc2ccc(Nc3ccccc3)cc2)n(C)c1=O" , target or system hTRPA1 (Homo sapiens, UniProt O75762, K186N).
≤ 5 µM

###

# ASSAY_SYSTEM: hTRPA1 (Homo sapiens, UniProt O75762, K186N)
# Construct: expressed in transfected cells; host or cells: HEK293/TREx (Invitrogen), induced with tetracycline
# ASSAY_TEXT: High throughput Ca2+ fluorescence (Fluo4) assay, AITC stimulation
# Assay type: cell-based
# CONDITION_PARAMETERS: Table 1; read-out: hTRPA1 Fluo4 IC50
Each record here notes measured IC50.

Some solved entries appear below for comparison.
CC1=C(C(=O)OC(C)C)C(c2ccc(Cl)cc2)NC(=S)N1 (stereo not drawn)
> 10 µM
CC1=C(C(=O)OC(C)C)C(c2ccc(C(C)C)cc2)NC(=O)N1 (stereo not drawn)
> 10 µM
CCOC(=O)C1=C(C)NC(=S)NC1c1cccc(OCC)c1 (stereo not drawn)
≤ 5 µM
COC(=O)C1=C(C)NC(=S)NC1c1ccccc1OC(C)C (stereo not drawn)
> 10 µM
COC(=O)C1=C(C)NC(=S)NC1c1ccccc1 (stereo not drawn)
≤ 5 µM

Pending compound:
Item CCOC(=O)C1=C(C)NC(=S)NC1c1cc(OC)ccc1Br (stereo not drawn) has what recorded IC50?
> 10 µM

###

# ASSAY_SYSTEM: hTRPA1 (Homo sapiens, UniProt O75762, K186N)
# Construct: expressed in transfected cells; host or cells: HEK293/TREx (Invitrogen), induced with tetracycline
# ASSAY_TEXT: High throughput Ca2+ fluorescence (Fluo4) assay, AITC stimulation
# Type: cell-based
# CONDITION_PARAMETERS: Table 2; read-out: hTRPA1 Fluor IC50
pIC50: −log10 of the molar value.
QUANTITY: pIC50

Cc1ccc(NC(=O)C(C)n2cnc3c2c(=O)n(C)c(=O)n3C)cc1 (centres unmarked) [Compound 315]
< 5.00
Cn1c(=O)c2c(ncn2CC(=O)NC(CN2CCOCC2)c2ccccc2)n(C)c1=O (centres unmarked) [Compound 357]
< 5.00

Find the measured pIC50: item CC1CCCCC1NC(=O)Cn1cnc2c1c(=O)n(C)c(=O)n2C (centres unmarked) [Compound 279] , target or system hTRPA1 (Homo sapiens, UniProt O75762, K186N).
< 5.00

Find the measured pIC50: item CN(CCCNC(=O)Cn1cnc2c1c(=O)n(C)c(=O)n2C)c1ccccc1 [Compound 322] , target or system hTRPA1 (Homo sapiens, UniProt O75762, K186N).
< 5.00

Find the measured pIC50: item COC(=O)c1ccc(NC(=O)Cn2cnc3c2c(=O)n(C)c(=O)n3C)cc1 [Compound 363] , target or system hTRPA1 (Homo sapiens, UniProt O75762, K186N).
≥ 5.00

Find the measured pIC50: item Cn1c(=O)c2c(ncn2CC(=O)NCCc2c[nH]c3ccccc23)n(C)c1=O [Compound 335] , target or system hTRPA1 (Homo sapiens, UniProt O75762, K186N).
< 5.00

Find the measured pIC50: item Cn1c(=O)c2c(ncn2CC(=O)Nc2ccc(-c3ccccc3)cc2)n(C)c1=O [Compound 294] , target or system hTRPA1 (Homo sapiens, UniProt O75762, K186N).
≥ 5.30

Find the measured pIC50: item Cn1c(=O)c2c(ncn2CC(=O)NC(c2ccccc2)c2cccs2)n(C)c1=O (centres unmarked) [Compound 352] , target or system hTRPA1 (Homo sapiens, UniProt O75762, K186N).
< 5.00

###

# ASSAY_SYSTEM: hTRPA1 (Homo sapiens, UniProt O75762, K186N)
# Construct: expressed in transfected cells; host or cells: HEK293/TREx (Invitrogen), induced with tetracycline
# ASSAY_TEXT: TRPA1 patch clamp (perforated patch, AITC-activated current)
# Format: cell-based
# CONDITION_PARAMETERS: Table 2; inward current; read-out: hTRPA1 Patch Inwd IC50
QUANTITY: IC50

Some solved entries appear below for comparison.
Cn1c(=O)c2c(ncn2CC(=O)Nc2ccc(Cl)cc2)n(C)c1=O [Compound 251]
≤ 1 µM
Cn1c(=O)c2c(ncn2CC(=O)NCCc2ccccc2Cl)n(C)c1=O [Compound 405]
≤ 10 µM

Find the measured IC50: item Cn1c(=O)c2c(ncn2CC(=O)Nc2ccc(F)c(Cl)c2)n(C)c1=O [Compound 281] , target or system hTRPA1 (Homo sapiens, UniProt O75762, K186N).
≤ 10 µM

###

# ASSAY_SYSTEM: hERG (Homo sapiens, UniProt Q12809)
# Sequence (Q12809 whole entry): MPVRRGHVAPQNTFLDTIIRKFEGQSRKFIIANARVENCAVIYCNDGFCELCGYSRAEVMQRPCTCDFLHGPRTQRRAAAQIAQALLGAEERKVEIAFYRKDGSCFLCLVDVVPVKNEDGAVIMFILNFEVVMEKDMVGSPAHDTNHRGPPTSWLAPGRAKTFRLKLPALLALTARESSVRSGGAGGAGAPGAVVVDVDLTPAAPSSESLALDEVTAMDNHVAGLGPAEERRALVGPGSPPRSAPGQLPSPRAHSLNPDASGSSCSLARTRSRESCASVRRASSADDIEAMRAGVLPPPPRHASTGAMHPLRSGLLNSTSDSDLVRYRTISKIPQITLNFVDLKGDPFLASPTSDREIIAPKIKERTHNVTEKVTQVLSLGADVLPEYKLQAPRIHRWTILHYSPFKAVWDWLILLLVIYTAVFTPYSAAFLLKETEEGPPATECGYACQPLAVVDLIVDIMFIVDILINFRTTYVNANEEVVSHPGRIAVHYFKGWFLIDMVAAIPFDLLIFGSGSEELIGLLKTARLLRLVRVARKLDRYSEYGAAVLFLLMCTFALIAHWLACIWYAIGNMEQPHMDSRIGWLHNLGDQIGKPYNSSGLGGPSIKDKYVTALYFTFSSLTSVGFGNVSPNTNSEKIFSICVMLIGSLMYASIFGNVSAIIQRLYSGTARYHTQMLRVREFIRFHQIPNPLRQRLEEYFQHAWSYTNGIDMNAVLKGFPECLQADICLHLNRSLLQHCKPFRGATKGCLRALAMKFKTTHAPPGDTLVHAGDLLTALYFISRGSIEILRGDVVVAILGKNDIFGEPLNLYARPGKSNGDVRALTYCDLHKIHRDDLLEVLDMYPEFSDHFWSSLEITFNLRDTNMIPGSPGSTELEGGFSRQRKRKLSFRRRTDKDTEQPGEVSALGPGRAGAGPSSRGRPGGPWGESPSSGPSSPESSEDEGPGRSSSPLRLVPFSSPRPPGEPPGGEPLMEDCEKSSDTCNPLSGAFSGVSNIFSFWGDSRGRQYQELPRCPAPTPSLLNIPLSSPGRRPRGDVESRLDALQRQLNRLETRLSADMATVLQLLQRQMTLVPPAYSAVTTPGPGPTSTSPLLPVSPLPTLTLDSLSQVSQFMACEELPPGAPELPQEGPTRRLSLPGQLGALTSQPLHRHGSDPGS
# ASSAY_TEXT: in vitro
# CONDITION_PARAMETERS: selective for TRPA1 over hERG
QUANTITY: selectivity ratio

Find the measured selectivity ratio: item CC(C)c1ccc(NC(=O)Cn2cnc3c2c(=O)n(C)c(=O)n3C)cc1 [Compound 200] , target or system hERG (Homo sapiens, UniProt Q12809).
≥ 20
